Parameter IC50: see the listing below.
target entity: JAK2 (Homo sapiens, UniProt O60674)
Construct: purchased Carna Biosciences, Inc
Sequence (O60674 whole entry): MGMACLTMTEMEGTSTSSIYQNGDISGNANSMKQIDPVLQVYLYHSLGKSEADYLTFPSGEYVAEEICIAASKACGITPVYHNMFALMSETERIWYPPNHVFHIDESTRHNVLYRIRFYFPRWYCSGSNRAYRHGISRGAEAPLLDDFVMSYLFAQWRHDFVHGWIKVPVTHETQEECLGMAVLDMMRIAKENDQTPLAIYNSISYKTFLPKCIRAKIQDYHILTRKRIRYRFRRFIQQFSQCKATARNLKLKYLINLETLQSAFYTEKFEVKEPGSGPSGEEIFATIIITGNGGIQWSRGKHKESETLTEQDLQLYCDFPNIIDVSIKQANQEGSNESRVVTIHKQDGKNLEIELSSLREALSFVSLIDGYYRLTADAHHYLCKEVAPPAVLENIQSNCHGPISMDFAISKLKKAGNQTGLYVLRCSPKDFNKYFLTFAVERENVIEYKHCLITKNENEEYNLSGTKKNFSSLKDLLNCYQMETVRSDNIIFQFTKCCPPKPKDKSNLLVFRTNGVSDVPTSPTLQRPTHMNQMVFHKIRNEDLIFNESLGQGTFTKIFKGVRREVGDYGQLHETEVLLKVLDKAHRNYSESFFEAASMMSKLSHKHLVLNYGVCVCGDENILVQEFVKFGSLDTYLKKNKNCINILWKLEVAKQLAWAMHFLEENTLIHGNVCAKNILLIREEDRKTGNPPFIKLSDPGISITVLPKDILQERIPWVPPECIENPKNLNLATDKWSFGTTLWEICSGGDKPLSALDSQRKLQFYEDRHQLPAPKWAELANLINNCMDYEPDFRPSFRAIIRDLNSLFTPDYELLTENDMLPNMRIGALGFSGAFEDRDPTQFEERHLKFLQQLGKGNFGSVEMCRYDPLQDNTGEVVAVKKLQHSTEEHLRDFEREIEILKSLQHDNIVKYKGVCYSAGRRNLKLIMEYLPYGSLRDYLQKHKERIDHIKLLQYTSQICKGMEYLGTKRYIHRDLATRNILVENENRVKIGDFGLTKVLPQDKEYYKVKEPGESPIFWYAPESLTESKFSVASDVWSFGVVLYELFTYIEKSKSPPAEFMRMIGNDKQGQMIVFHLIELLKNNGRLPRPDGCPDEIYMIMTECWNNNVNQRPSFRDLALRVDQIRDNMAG
protocol description: JAK tyrosine kinase inhibitory activity in the presence of 1 mM ATP (ELISA), JAK2
Type: biochemical

{"entry smiles": "CC(C)(C)Nc1cc(C(=O)N2CCC(NC(=O)OC3CC3)CC2)nc(-c2cnn3ccsc23)n1", "IC50": "2400 nM"}
{"entry smiles": "C[C@@H](Nc1cc(C(=O)N2CCC(NC(=O)N(C)C)CC2)nc(-c2cnn3ccsc23)n1)C1CC1", "IC50": "2000 nM"}
{"entry smiles": "COCC(=O)NC1CCN(C(=O)c2cc(N[C@H](C)C(C)(C)C)nc(-c3cnn4ccsc34)n2)CC1", "IC50": "1200 nM"}
{"entry smiles": "CC(C)(C)Nc1cc(C(=O)N2CCC(Nc3ccccn3)CC2)nc(-c2cnn3ccsc23)n1", "IC50": "6100 nM"}
{"entry smiles": "O=C(NC1CCN(C(=O)c2cc(NCC3(COC(F)F)CCC3)nc(-c3cnn4ccsc34)n2)CC1)C1CC1", "IC50": "960 nM"}
{"entry smiles": "CC(=O)NC1CCN(C(=O)c2cc(N[C@@H](C)C(C)(C)C)nc(-c3cnn4ccsc34)n2)CC1", "IC50": "730 nM"}
{"entry smiles": "CCOC(=O)NC1CCN(C(=O)c2cc(N[C@@H](C)C3CC3)nc(-c3cnn4ccsc34)n2)CC1", "IC50": "2100 nM"}

* * *

target entity: JAK3 (Homo sapiens, UniProt P52333)
Construct: purchased Carna Biosciences, Inc
Sequence (P52333 whole entry): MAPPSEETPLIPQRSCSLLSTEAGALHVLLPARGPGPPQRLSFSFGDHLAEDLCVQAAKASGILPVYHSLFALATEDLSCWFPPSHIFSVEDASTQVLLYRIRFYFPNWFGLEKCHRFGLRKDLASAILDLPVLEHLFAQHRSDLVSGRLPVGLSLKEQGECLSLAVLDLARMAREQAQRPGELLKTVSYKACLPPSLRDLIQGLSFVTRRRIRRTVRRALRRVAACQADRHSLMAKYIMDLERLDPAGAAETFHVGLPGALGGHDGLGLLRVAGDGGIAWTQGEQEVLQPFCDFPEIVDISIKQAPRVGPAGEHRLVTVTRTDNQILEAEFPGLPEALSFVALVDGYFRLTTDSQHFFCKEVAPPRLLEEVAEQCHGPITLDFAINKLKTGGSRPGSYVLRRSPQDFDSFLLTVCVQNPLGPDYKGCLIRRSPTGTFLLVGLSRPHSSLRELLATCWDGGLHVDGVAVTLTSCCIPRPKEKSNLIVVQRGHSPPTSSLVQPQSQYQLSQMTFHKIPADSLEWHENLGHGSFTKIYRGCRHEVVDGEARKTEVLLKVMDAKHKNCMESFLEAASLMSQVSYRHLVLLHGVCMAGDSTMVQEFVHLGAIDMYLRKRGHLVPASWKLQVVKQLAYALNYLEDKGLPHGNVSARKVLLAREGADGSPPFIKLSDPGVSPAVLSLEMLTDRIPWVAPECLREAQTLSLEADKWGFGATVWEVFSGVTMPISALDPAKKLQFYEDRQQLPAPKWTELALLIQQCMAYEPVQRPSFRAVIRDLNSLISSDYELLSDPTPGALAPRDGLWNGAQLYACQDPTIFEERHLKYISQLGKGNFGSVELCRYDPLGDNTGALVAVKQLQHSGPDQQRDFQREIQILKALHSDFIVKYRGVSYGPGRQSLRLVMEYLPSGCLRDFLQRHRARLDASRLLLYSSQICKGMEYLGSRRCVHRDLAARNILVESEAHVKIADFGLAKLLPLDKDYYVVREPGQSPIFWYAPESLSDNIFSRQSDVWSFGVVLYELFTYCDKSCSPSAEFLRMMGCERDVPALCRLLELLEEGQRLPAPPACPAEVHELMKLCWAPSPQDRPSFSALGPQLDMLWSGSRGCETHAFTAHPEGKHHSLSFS
protocol description: JAK tyrosine kinase inhibitory activity in the presence of 1 mM ATP (ELISA), JAK3
Type: biochemical
Counter-ions that a name gives are not always drawn.
Parameter IC50: see the listing below.

{"molecule": "CCC(=O)NC1CCN(C(=O)c2cc(N[C@@H](C)CC)nc(-c3cnn4ccsc34)n2)CC1", "target entity": "JAK3 (Homo sapiens, UniProt P52333)", "unit text": "nM", "value modifier": "=", "IC50": 4700}
{"molecule": "CCC(=O)NC1CCN(C(=O)c2cc(OCC(CC)CC)nc(-c3cnn4ccsc34)n2)CC1", "target entity": "JAK3 (Homo sapiens, UniProt P52333)", "unit text": "nM", "value modifier": "=", "IC50": 2700}
{"molecule": "COC(=O)NC1CCN(C(=O)c2cc(N(C)C(C)(C)C)nc(-c3cnn4ccsc34)n2)CC1 [Example 132, hydrochloride]", "target entity": "JAK3 (Homo sapiens, UniProt P52333)", "unit text": "nM", "value modifier": ">", "IC50": 10000}
{"molecule": "CN(C)C(=O)NC1CCN(C(=O)c2cc(NCC(C)(C)C)nc(-c3cnn4ccsc34)n2)CC1", "target entity": "JAK3 (Homo sapiens, UniProt P52333)", "unit text": "nM", "value modifier": "=", "IC50": 4200}
{"molecule": "CCC(C)(C)Nc1cc(C(=O)N2CCC(NC(=O)OC)CC2)nc(-c2cnn3ccsc23)n1", "target entity": "JAK3 (Homo sapiens, UniProt P52333)", "unit text": "nM", "value modifier": "=", "IC50": 2300}
{"molecule": "C[C@@H](Nc1cc(C(=O)N2CCC(NC(=O)OCC(F)(F)F)CC2)nc(-c2cnn3ccsc23)n1)C(C)(C)C", "target entity": "JAK3 (Homo sapiens, UniProt P52333)", "unit text": "nM", "value modifier": "=", "IC50": 3400}
{"molecule": "C[C@H](Nc1cc(C(=O)N2CCC(NC(=O)c3cccs3)CC2)nc(-c2cnn3ccsc23)n1)C1CC1", "target entity": "JAK3 (Homo sapiens, UniProt P52333)", "unit text": "nM", "value modifier": ">", "IC50": 10000}
